Where do the numbers come from? From paper PMC9629815.

Assay: In vivo mouse PK study
Design: species or system mice
Settings: plasma, intravenous, 3 mg/kg, read-out: Vss
Property Label: Vd

Task: What value of Vd has been recorded for this entry: Nc1nccc2c(Br)cc3cc(C(=O)O)ccc3c12
Output: 0.49 L/kg

* * *

Assay: In vivo mouse PK study
Parameters: species or system mice
Details: plasma, intravenous, 3 mg/kg
Property Label: clearance (mL/min/kg)
Express the result in mL/min/kg but write the number alone.

Task: What value of clearance has been recorded for this entry: Nc1nccc2c(Br)cc3cc(C(=O)O)ccc3c12
Output: 2.83

* * *

Target: CDK9 (Homo sapiens)
Sequence (P50750 whole entry): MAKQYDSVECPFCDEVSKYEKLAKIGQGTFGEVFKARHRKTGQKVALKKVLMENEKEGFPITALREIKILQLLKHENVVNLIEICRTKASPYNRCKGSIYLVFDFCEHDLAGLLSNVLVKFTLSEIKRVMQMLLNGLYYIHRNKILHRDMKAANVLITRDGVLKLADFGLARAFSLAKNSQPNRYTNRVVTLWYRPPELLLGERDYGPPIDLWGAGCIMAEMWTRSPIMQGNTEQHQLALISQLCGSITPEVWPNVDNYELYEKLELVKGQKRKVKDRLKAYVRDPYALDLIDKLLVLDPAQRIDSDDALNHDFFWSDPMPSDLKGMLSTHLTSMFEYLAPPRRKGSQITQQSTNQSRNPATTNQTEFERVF
Sequence (O60563 whole entry partner): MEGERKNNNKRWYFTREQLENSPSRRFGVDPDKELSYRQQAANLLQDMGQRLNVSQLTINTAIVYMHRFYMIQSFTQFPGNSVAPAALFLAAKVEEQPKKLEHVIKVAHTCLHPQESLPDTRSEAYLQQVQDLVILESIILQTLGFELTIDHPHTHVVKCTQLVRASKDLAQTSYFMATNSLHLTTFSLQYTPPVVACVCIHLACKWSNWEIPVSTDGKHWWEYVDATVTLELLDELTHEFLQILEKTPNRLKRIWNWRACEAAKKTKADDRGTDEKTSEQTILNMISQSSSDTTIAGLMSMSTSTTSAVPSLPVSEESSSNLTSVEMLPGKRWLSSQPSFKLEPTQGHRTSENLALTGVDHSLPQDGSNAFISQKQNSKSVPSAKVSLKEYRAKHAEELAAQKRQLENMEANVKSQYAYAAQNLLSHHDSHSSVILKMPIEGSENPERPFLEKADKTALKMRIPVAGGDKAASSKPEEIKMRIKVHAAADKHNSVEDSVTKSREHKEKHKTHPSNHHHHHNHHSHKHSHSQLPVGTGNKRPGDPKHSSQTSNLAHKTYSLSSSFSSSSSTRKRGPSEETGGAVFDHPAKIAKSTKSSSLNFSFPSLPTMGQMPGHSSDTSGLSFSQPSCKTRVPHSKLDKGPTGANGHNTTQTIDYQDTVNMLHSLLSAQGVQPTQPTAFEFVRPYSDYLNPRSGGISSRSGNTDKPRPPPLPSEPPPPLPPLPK
Property Label: pIC50
// pIC50: -log10(molar conc.)

Task: What value of pIC50 has been recorded for this entry: Nc1nccc2c(Br)cc3cc(C(=O)O)ccc3c12
Output: 6.98

* * *

Assay: Hepatocyte stability assay
Format: in vitro ADME, Human
Conditions: human, cryopreserved human hepatocytes (LiverPool 20-donor); read-out: T½
Protocol: Human LiverPoolTM 20-donor, dog and mouse cryopreserved hepatocytes were obtained from BioreclamationIVT. Cryopreserved hepatocytes were removed from the liquid nitrogen tank and thawed in a 37°C water bath. As soon as the cells pulled away from the vial wall, they were decanted into 48 ml of warm HT medium. […] Cell density was counted by a hemacytometer. […] All samples were analyzed on LC/MS/MS using an AB Sciex API 4000 instrument, coupled to a Shimadzu LC-20AD LC Pump system. […]
Property Label: half-life at 1 µM (h)
Express the result in h but write the number alone.

Task: What value of half-life at 1 µM has been recorded for this entry: Nc1nccc2c(Br)cc3cc(C(=O)O)ccc3c12 [MK256]
Output: 1.48

* * *

Test: Hepatocyte stability assay
Type: in vitro ADME, Mouse
Conditions: mouse, cryopreserved mouse hepatocytes; read-out: T½
Property Label: half-life at 1 µM
Give me the value, and tack the unit on after it.

Task: What value of half-life at 1 µM has been recorded for this entry: Nc1nccc2c(Br)cc3cc(C(=O)O)ccc3c12
Output: 5.18 h

* * *

Test: MDCK-MDR1 permeability assay
Type: in vitro ADME
Conditions: dog, MDCK-MDR1
Property Label: Papp A→B at 1 h, 5 μM
Give me the value, and tack the unit on after it.

Task: What value of Papp A→B at 1 h, 5 μM has been recorded for this entry: Nc1nccc2c(Br)cc3cc(C(=O)O)ccc3c12
Output: 57 ×10⁻⁶ cm/s
